- Experimental Target: CDK4/cyclin D3 (Homo sapiens)
- Construct: made in house; host or cells: insect cells (baculovirus co-infection)
- Sequence (P11802 whole entry): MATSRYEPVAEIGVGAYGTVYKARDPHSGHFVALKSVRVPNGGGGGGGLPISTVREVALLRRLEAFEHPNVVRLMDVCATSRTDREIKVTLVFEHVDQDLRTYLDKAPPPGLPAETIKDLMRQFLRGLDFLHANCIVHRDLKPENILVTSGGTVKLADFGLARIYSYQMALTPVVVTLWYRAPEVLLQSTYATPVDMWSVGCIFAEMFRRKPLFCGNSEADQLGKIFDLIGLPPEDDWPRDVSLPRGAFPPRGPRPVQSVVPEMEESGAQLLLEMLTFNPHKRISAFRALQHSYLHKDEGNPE
- Sequence (P30281 1-264 partner limits assumed): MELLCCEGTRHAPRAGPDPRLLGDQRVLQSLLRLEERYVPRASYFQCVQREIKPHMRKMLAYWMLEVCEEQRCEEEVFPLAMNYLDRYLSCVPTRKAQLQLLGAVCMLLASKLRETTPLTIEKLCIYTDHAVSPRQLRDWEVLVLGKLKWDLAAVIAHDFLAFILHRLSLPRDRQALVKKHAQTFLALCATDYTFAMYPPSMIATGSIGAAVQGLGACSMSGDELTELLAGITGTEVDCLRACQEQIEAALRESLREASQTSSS
- Assay Protocol: Inhibition of CDK4/Cyclin D retinoblastoma kinase activity;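 further: relative to DMSO control wells without compound minus no-enzyme background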
- Assay type: biochemical
- Assay Context: test compound at 1 μM (head line shifted: 'mM' printed beside 'Structure'); 1 µM
Quantity Measured: % Inhib CDK4/D @ 1 μM (%)

For orientation, consider the following solved cases.
{"Compound": "Cc1noc(C)c1CS(=O)(=O)c1ccc(Nc2nc(N)c(C(=O)c3c(Cl)cccc3Cl)s2)cc1 [DD(162)]", "Obs Value": 14}
{"Compound": "CC(C)CCCS(=O)(=O)c1ccc(Nc2nc(N)c(C(=O)c3c(Cl)cccc3Cl)s2)cc1 [DD(190)]", "Obs Value": 33.4}
{"Compound": "CC(=O)OCCS(=O)(=O)c1ccc(Nc2nc(N)c(C(=O)c3c(Cl)cccc3Cl)s2)cc1 [DD(237)]", "Obs Value": 7.3}
{"Compound": "Nc1nc(Nc2ccc([S+]([O-])CCO)cc2)sc1C(=O)c1c(Cl)cccc1Cl (centres unmarked) [DD(109)]", "Obs Value": 73.5}

I. CCCS(=O)(=O)c1ccc(Nc2nc(N)c(C(=O)c3c(Cl)cccc3Cl)s2)cc1 [DD(185)]
II. CC(C)CCOC(=O)CS(=O)(=O)c1ccc(Nc2nc(N)c(C(=O)c3c(Cl)cccc3Cl)s2)cc1 [DD(192)]
III. CN1CCCC(CS(=O)(=O)c2ccc(Nc3nc(N)c(C(=O)c4c(Cl)cccc4Cl)s3)cc2)C1 (centres unmarked) [DD(187)]
IV. CC(C)CCCS(=O)(=O)c1ccc(Nc2nc(N)c(C(=O)c3c(Cl)cccc3Cl)s2)cc1 [DD(230)]
Lookup: Put the items in sequence by % Inhib CDK4/D @ 1 μM, from largest down. Use the labels to give the ranking in the order requested.
Found: I, IV, III, II
(I: 22.3%, IV: −1.6%, III: −6.4%, II: −29%)
